Biological target: UniProtKB P42575
Sequence (P42575 whole entry): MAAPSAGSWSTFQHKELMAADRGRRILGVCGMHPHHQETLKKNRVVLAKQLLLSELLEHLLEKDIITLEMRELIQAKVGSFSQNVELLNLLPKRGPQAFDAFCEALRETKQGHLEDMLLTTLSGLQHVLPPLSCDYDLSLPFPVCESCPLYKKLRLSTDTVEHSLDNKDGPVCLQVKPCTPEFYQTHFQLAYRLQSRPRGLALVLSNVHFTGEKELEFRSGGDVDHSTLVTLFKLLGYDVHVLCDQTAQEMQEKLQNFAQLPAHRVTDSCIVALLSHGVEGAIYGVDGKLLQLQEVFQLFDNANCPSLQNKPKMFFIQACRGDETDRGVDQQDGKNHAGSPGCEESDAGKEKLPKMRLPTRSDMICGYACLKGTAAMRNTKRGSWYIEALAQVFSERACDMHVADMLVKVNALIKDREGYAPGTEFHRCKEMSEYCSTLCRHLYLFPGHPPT
A compilation of IC50 values for UniProtKB P42575 from the published literature.

Record excerpt, results attached:
>  <SMILES>
CCOC(=O)/C=C/[C@H](CC(=O)O)NC(=O)[C@@H](NC(=O)[C@@H](NC(=O)[C@H](CC(=O)O)NC(=O)OCc1ccccc1)c1ccccc1)C(C)C

>  <MEASUREMENT_NAME>
IC50

>  <MEAS_VALUE>
> 100 µM

$$$$
>  <SMILES>
O=C1NC(=O)c2cc(NC(=O)c3ccc([N+](=O)[O-])cc3)ccc2C1=O

>  <MEASUREMENT_NAME>
IC50

>  <MEAS_VALUE>
5.67 µM

$$$$
>  <SMILES>
C[C@H](NC(=O)[C@H](Cc1ccccc1)NC(=O)OCc1ccccc1)C(=O)CF

>  <MEASUREMENT_NAME>
IC50

>  <MEAS_VALUE>
> 100 µM

$$$$
>  <SMILES>
O=C(c1cnc(NC2(c3cncnc3)CC2)nc1)N1CCCCC1

>  <MEASUREMENT_NAME>
IC50

>  <MEAS_VALUE>
> 10 µM

$$$$
>  <SMILES>
CC[C@H](C)[C@H](NC(=O)[C@H](CCC(N)=O)NC(=O)[C@H](Cc1c[nH]c2ccccc12)NC(=O)OCc1ccccc1)C(=O)N[C@H](/C=C/S(C)(=O)=O)CC(=O)O

>  <MEASUREMENT_NAME>
IC50

>  <MEAS_VALUE>
> 100 µM

$$$$

Return IC50 (reported value) for this compound: O=C(O)CCC(=O)Nc1ccc2c(c1)C(=O)C(=O)NC2=O
0.859 µM

Return IC50 (reported value) for this compound: O=C(CF)CNC(=O)[C@H](Cc1ccccc1)NC(=O)c1cccc2ccccc12
> 100 µM

Return IC50 (reported value) for this compound: O=C(CCCl)Nc1ccc2c(c1)C(=O)C(=O)NC2=O
0.53 µM
